Here the recorded cytotoxicity at 70.5 h is given for each entry.
- ASSAY_NAME: Human HepG2 cell viability assay in 384 well format
- Assay type: toxicity, cell-based
- Set-up: dose 125 nL, time 70.5 hour; concentration not given beside the values
- CONDITION_DETAILS: HepG2 cells, read-out: Inhibition
ENDPOINT_NAME: cytotoxicity at 70.5 h (%)

| COMPOUND | TEST_VALUE |
| --- | --- |
| CCOc1ncccc1CNS(=O)(=O)N1CCOCC1 | 15.2 |
| COc1cccc(CN2CCCCC2CN2CCOCC2)c1F (stereo unspecified) | -2.15 |
| CC(C)c1sc(Cl)nc1C(=O)N1CCN(c2ccccc2)CC1 | 28.2 |
| Cn1ncc2c1CCCC2NCc1cc(Br)cs1 (stereo unspecified) | -0.587 |
| CS(=O)(=O)NCC1CCCN(c2ccc(C(F)(F)F)cn2)C1 (stereo unspecified) | -7.49 |
| CCOCCCNc1cc(C)nn2cnnc12 | 7.54 |
| CC(=O)c1ccc(Nc2nc(N)nc3c2nc(C)n3C)cc1 | 4.46 |
| O=C1N(Cc2ccc(F)cc2)CCCC12CCN(C1CCSCC1)C2 (stereo unspecified) | -6 |
| CCOc1ccccc1C(C(=O)O)N(C)Cc1nnc(C)o1 (stereo unspecified) | -2.69 |
| Cc1ccsc1CNc1cc(N2CCCC2CO)ncn1 (stereo unspecified) | -4.35 |
| O=C(c1cc(COc2ccc3c(c2)OCO3)[nH]n1)N1CCCO1 | -2.52 |
| Cc1ccc(C(=O)NCC2COCCO2)c(=O)[nH]1 (stereo unspecified) | -17 |
| CC(O)CN1CCN(C(=O)c2cccn2Cc2cccnc2)CC1 (stereo unspecified) | -11.4 |
| COc1cccc(NC(=O)Cn2c(=O)nc(N)c3cc(C)sc32)c1 | -17.3 |
| CC(O)CCN(C)C(=O)Nc1cccc(F)c1 (stereo unspecified) | -8.99 |
| CCc1ncc2c(n1)CN(CC1CCCCO1)CC2 (stereo unspecified) | 8.28 |
| COCc1nc(C(=O)N2CCCC2c2ccc(OC)cc2)cs1 (stereo unspecified) | -14.3 |
| CC(C(=O)NC(C)(C)C)S(=O)(=O)Cc1noc(C(C)(C)C)n1 (stereo unspecified) | -5.8 |
| COCCN1CCC(CNc2cnc3ccccc3n2)CC1 | -1.83 |
| NC(=O)N1CC(OCc2cccc3ccccc23)C1 | 2.87 |
| CCN(Cc1noc(C)n1)C(=O)CCc1scnc1C | 3.89 |
| CCOCCN1CCN(CCOCC(F)(F)F)CC1 | -8.54 |
| O=C(C1CCCO1)N1CCCn2c(nnc2Cn2ccnc2)C1 (stereo unspecified) | -7.67 |
| O=C(NCc1nn(-c2ccccc2)c2c1CCC2)N1CCCC(O)C1 (stereo unspecified) | -12.1 |
| CCN(CC(=O)NC)S(=O)(=O)N1CCCCC1 | -7.25 |
| c1ccc(CN2CCCn3nnc(COc4ccccn4)c3C2)nc1 | -11.2 |
